- compound: "COc1ccc(/C=C2\\Cc3ccccc3C2=O)cc1OC [BID8]"
  melting point: "176.5 to 177.2 °C"
- compound: "COc1cc(/C=C2\\Cc3ccccc3C2=O)cc(OC)c1O [BID11]"
  melting point: "190.2 to 191.1 °C"
- compound: "O=C1/C(=C/c2cc(Br)c(O)c(Br)c2)Cc2ccccc21 [BID13]"
  melting point: "267.4 to 268.1 °C"
- compound: "CCOc1cc(/C=C2\\Cc3ccccc3C2=O)ccc1O [BID5]"
  melting point: "135.8 to 136.4 °C"
- compound: "COc1cc(/C=C2\\Cc3ccccc3C2=O)cc(OC)c1OC [BID10]"
  melting point: "164.4 to 165.2 °C"
- compound: "O=C1/C(=C/c2ccc(O)c(Br)c2)Cc2ccccc21 [BID12]"
  melting point: "225 to 226.2 °C"

====

# target: mushroom tyrosinase
# protocol-notes: Mushroom tyrosinase inhibitory assay (L-tyrosine or L-DOPA as substrate)
# Format: biochemical, Agaricus bisporus
# conditions-used: L-DOPA substrate; mean ± SEM of triplicate experiments; read-out: IC50 (μM), L-DOPA as substrate (diphenolase activity)

- compound: "O=C1/C(=C/c2ccc(O)c(Br)c2)Cc2ccccc21"
  target: "mushroom tyrosinase"
  IC50: "> 200 µM"
- compound: "COc1cc(/C=C2\\Cc3ccccc3C2=O)cc(OC)c1O"
  target: "mushroom tyrosinase"
  IC50: "> 200 µM"
- compound: "COc1ccc(/C=C2\\Cc3ccccc3C2=O)cc1OC"
  target: "mushroom tyrosinase"
  IC50: "> 200 µM"
- compound: "O=C1/C(=C/c2ccc(O)cc2O)Cc2ccccc21"
  target: "mushroom tyrosinase"
  IC50: "1.39 µM"
- compound: "O=C(O)/C=C/c1ccccc1 [Cinnamic acid, trans-cinnamic acid, reference compound]"
  target: "mushroom tyrosinase"
  IC50: "> 200 µM"
- compound: "COc1ccc(/C=C2\\Cc3ccccc3C2=O)cc1O"
  target: "mushroom tyrosinase"
  IC50: "50.8 µM"
- compound: "O=C1/C(=C/c2ccc(O)c(O)c2)Cc2ccccc21"
  target: "mushroom tyrosinase"
  IC50: "52.9 µM"
- compound: "COc1ccc(/C=C2\\Cc3ccccc3C2=O)c(OC)c1"
  target: "mushroom tyrosinase"
  IC50: "96.9 µM"
- compound: "O=C(O)c1ccccc1C(=O)O [Phthalic acid, phthalic acid, reference compound]"
  target: "mushroom tyrosinase"
  IC50: "> 200 µM"
- compound: "COc1cc(/C=C2\\Cc3ccccc3C2=O)cc(OC)c1OC"
  target: "mushroom tyrosinase"
  IC50: "> 200 µM"

====

# target: mushroom tyrosinase
# protocol-notes: Mushroom tyrosinase inhibitory assay (L-tyrosine or L-DOPA as substrate)
# Format: biochemical, Agaricus bisporus
# conditions-used: L-DOPA substrate; mean ± SEM of triplicate experiments; read-out: IC50 (μM), L-DOPA as substrate (diphenolase activity)
readout-kind: IC50

- compound: "CCOc1cc(/C=C2\\Cc3ccccc3C2=O)ccc1O [BID5]"
  readout-kind: "IC50"
  value: "> 200 µM"
- compound: "COc1ccc(/C=C2\\Cc3ccccc3C2=O)cc1 [BID7]"
  readout-kind: "IC50"
  value: "> 200 µM"
- compound: "COc1cc(/C=C2\\Cc3ccccc3C2=O)ccc1O [BID4]"
  readout-kind: "IC50"
  value: "> 200 µM"
